// data source = patent US20030225007A1

molecular target: Factor XIIIa (activated FXIII) (Homo sapiens); construct: purchased Enzyme Research Laboratories, Ltd; assay: Inactivation of purified Factor XIIIa (monodansylcadaverine incorporation into dimethylcasein, fluorescence); format: biochemical; conditions: purified activated FXIII; 50% enzyme inactivation after 5-min incubation with inhibitor at 37° C. in the absence of substrate; read-out: FXIIIa (IC50 in μM)
property.label: IC50 (µM)

Completed entries (count: 2):
O=C(O)c1ccccc1S(=O)(=O)NCCCCCCNc1nsc2nccn12 | 6.8
COC(=O)CN(CCCCCCNS(=O)(=O)c1ccccc1[N+](=O)[O-])c1nsc2nccn12 | 0.88

[1] O=C(O)CN(CCCCCCNc1nsc2nccn12)S(=O)(=O)c1cccc2ccccc12
[2] NC(=O)c1ccccc1S(=O)(=O)NCCCCCCNc1nsc2nccn12
## Task API: POST /compare with 1 and 2 ; response names the item with higher IC50. State the label of the item chosen.
## Result 1
(1: 6.8 µM, 2: 3 µM)

###

target: Factor XIIIa (activated FXIII) (Homo sapiens, UniProt P00488); construct: purchased Enzyme Research Laboratories, Ltd; test: Inactivation of purified Factor XIIIa (monodansylcadaverine incorporation into dimethylcasein, fluorescence); assay type: biochemical; details: purified Factor XIIIa; method of Kitz and Wilson; read-out: Second order rate constant for inactivation
property.label: kinact/KI (M⁻¹ s⁻¹)
Hi! Could you send only the number? It should be in M⁻¹ s⁻¹, unit omitted.

Completed entries (count: 4):
O=S(=O)(NCCCCCCNc1nsc2nccn12)c1ccccc1C(F)(F)F [2-CF3-Ph / H] | 12000
O=[N+]([O-])c1ccc(NCCCCCCNc2nsc3nccn23)c([N+](=O)[O-])c1 | 8900
O=C(O)CN(CCCCCCNS(=O)(=O)c1ccccc1[N+](=O)[O-])c1nsc2nccn12 [H / CH2CO2H / 2-NO2-Ph] | 4500
O=S(=O)(NCCCCCCNc1nsc2nccn12)c1ccc(Br)cc1Br | 13000

Please find the next compound below.
kinact/KI for O=S(=O)(NCCCCCCNc1nsc2nccn12)c1cccc2ccccc12 [1-naphthyl] is 3300

###

biological target: endogenous Factor XIII in plasma (Plasma FXIIIa) (Homo sapiens, UniProt P00488); experiment: Inactivation of endogenous Factor XIII in plasma; conditions: citrated plasma, thrombin-activated, 5 min at 37° C.
property.label: IC50 (µM)

[1] CN(C)c1cccc2c(S(=O)(=O)NCCCCCNc3nsc4nccn34)cccc12
[2] CS(=O)(=O)NCCCCCCNc1nsc2nccn12
## Task Hey, between 1 and 2 which has a smaller measured IC50? State the label of the item chosen.
## Result 1

###

Target: Factor XIIIa (activated FXIII) (Homo sapiens)
Construct: purchased Enzyme Research Laboratories, Ltd
Sequence (P00488 39-732 limits assumed): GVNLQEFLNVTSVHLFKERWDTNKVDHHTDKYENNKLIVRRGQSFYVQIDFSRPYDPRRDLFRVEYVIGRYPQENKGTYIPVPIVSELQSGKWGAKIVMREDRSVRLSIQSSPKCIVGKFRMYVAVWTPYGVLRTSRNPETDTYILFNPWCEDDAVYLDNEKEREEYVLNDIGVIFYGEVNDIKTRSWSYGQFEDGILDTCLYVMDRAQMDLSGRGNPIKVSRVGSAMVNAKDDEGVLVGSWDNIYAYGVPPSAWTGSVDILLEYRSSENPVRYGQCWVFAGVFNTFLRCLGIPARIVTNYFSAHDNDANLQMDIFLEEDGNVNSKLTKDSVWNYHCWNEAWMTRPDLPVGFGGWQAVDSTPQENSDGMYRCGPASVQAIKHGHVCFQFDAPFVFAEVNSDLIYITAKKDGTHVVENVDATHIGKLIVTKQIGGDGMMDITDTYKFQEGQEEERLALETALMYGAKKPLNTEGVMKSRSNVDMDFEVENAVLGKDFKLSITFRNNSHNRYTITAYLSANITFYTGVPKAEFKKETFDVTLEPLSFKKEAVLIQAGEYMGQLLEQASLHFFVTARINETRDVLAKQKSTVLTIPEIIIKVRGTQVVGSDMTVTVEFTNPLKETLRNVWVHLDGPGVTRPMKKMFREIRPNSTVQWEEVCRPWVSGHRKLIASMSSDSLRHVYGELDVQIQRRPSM
Test: Inactivation of purified Factor XIIIa (monodansylcadaverine incorporation into dimethylcasein, fluorescence)
Type: biochemical
Settings: purified activated FXIII; 50% enzyme inactivation after 5-min incubation with inhibitor at 37° C. in the absence of substrate; read-out: FXIIIa (IC50 in μM)
property.label: IC50 (µM)

Cc1ccc(S(=O)(=O)N[C@@H](CCCCNc2nsc3nccn23)C(=O)N2CCN(Cc3ccccc3)CC2)cc1 | 6.5
COC(=O)c1ccccc1S(=O)(=O)NCCCCCCNc1nsc2nccn12 [2-COOMe-Ph] | 3.2
O=S(=O)(NCCCCCCNc1nsc2nccn12)c1cccc2cccnc12 [Quinoline-8-] | 2.6
Cc1cc(S(=O)(=O)NCCCCCCNc2nsc3nccn23)c(C)cc1Cl [2-Me-4-C1-5-Me-Ph] | 0.95
O=S(=O)(NCCCCCCNc1nsc2nccn12)c1ccc(Br)cc1 [4-Br-Ph] | 0.93
O=S(=O)(NCCCCCCNc1nsc2nccn12)c1cccc2ccccc12 [1-naphthyl] | 0.52

[I] COc1cc(C)c(S(=O)(=O)NCCCCCCNc2nsc3nccn23)c(C)c1C [2-Me-3-Me-4-OMe-6-Me-Ph]
[II] Cc1c(Cl)cccc1S(=O)(=O)NCCCCCCNc1nsc2nccn12 [2-Me-3-Cl-Ph]
[III] NC(=O)CCCN(CCCCCCNc1nsc2nccn12)S(=O)(=O)c1cccc2ccccc12 [3 / NH2 / 1-naphthyl]
[IV] COc1ccc(Br)cc1S(=O)(=O)NCCCCCCNc1nsc2nccn12 [2-OMe-5-Br-Ph]
## Task Ordering criterion: IC50; begin with the maximum. Reply with the item labels sorted in the order that was asked for.
## Result I, III, IV, II

[1] O=C(O)c1ccc(S(=O)(=O)NCCCCCCNc2nsc3nccn23)cc1 [4-COOH-Ph]
[2] Nc1ccccc1S(=O)(=O)NCCCCCCNc1nsc2nccn12 [2-NH2-Ph]
## Task API: POST /compare with 1 and 2 ; response names the item with higher IC50. State the label of the item chosen.
## Result 1
(1: 11.4 µM, 2: 2 µM)
